# target: T1, human IL-4Rα on TF-1 cells (human, UniProt P24394 26-825)
# T1 sequence (looked up): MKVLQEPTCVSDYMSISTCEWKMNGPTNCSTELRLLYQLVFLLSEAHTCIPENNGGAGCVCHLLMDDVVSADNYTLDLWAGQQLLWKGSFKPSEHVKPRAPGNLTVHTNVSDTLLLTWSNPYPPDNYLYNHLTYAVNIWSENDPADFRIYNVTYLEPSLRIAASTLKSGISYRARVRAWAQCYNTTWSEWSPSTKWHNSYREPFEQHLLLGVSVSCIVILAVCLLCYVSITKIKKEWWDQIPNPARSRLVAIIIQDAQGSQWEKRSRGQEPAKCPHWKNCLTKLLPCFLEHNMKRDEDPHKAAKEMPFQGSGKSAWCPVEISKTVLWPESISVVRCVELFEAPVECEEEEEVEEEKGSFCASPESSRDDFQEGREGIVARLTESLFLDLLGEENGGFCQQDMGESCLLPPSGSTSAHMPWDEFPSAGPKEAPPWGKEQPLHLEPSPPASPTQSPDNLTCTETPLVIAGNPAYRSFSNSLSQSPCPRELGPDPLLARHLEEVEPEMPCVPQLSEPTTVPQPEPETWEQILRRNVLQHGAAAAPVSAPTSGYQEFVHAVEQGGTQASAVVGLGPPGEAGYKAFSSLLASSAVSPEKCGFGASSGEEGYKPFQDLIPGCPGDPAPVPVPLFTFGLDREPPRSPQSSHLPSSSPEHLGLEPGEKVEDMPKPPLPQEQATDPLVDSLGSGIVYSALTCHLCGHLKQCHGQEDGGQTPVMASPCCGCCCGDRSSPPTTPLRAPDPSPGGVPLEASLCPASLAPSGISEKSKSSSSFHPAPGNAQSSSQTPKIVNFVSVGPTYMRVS
# procedure-summary: cell-based or functional assay
test-readout: IC50 (pM), IL-4 induced TF-1 cell proliferation

binder="Antibody 12 IgG (antibody, V domains shown) VH: QVQLVQSGAEVKKPGASVKVSCKASGYAFTSYYMHWARQAPGQGLEWMGIINPSGGSTSYAQKFQGRVTMTRDTSTSTVYMELSSLRSEDTAVYYCARGKWWFYDWGKGTLVTVSS VL: QSVLTQPPSVSAAPGQKVTISCSGGSSNIGNSYVSWYQQLPGTAPKLLIYDNNKRPSGIPDRFSGSKSGTSATLAITGLQTGDEADYYCGTWDTSTTMYPLFGTGTKLTVL" reading="18.2 pM"
